Biological target: EPHB2 (UniProt P29323)
Sequence (P29323 whole entry, looked up): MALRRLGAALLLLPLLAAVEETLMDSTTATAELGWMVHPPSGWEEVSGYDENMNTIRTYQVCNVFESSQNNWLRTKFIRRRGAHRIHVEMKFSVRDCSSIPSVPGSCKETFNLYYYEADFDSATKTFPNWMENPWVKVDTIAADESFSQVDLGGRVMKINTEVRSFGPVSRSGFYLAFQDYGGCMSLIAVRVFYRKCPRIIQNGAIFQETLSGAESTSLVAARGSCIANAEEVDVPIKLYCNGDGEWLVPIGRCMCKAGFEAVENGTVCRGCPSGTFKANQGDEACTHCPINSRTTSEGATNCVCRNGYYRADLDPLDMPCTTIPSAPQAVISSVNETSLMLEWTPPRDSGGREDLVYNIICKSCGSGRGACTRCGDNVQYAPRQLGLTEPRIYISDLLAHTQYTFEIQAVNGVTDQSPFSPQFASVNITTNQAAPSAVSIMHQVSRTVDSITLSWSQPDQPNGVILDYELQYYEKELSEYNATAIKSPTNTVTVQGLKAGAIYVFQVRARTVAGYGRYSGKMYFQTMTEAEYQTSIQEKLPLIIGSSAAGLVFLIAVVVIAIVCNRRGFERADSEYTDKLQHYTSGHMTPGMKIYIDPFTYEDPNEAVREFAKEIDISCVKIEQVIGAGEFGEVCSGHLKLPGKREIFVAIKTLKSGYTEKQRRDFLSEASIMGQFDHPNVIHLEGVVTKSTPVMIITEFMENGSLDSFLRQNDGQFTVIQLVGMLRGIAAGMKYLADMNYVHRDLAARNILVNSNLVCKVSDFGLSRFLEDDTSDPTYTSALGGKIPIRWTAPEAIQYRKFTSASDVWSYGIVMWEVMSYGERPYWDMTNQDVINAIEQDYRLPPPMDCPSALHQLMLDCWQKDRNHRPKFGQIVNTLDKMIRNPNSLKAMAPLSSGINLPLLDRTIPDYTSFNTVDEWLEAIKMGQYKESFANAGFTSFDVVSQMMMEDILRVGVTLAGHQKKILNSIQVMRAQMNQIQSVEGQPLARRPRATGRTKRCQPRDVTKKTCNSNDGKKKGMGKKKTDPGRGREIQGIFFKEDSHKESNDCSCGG
Assay: phosphorylation enrichment, bacterial display (enrichment ratio); higher = better substrate or ligand; peptides without Tyr show the background;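 also: 11-residue human phosphosite peptides and single-mutation variants displayed on the E. coli surface, counted by deep sequencing, each peptide's frequency after selection divided by its frequency in the unselected input library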;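 also: frequency after pTyr selection over input frequency; kinase dosed for 20-30% of maximal phosphorylation in three min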
Endpoint: phosphorylation enrichment

QHVPDYRQNGF [PCDHGA1_Y890_V894G_YF] = 0.459
AAETTYDKILK [GDNF_Y156] = 0.496
DCAAIYGNEPD [AKR1A1_Y50_E55D] = 0.726

Could you report phosphorylation enrichment for every entry in the following list?
1. FVSLIYTNFEA [GSTP1_Y109_I105V_YF]
2. PSQRRYLFFFS [PTEN_Y174_V175L_YF]

Response:
[0.91, 0.804]

Attribution: the supplement of paper PMC10065799
